# Tested on: UACC-257 melanoma
# Assay Text: NCI tumour cell line growth inhibition, 48 h; in the data active = GI50 below about 0.43 µM; inactive = the rest
Classes to choose from: T = active, F = inactive

[
  {
    "Compound": "COC1CC(O[C@H]2CC[C@@]3(C)[C@H](CC[C@@H]4[C@@H]3CC[C@]3(C)[C@@H](C5=CC(=O)OC5)[C@@H](OC(C)=O)C[C@]43O)C2)OC(C)C1O (some centres not stated)",
    "Group Label": "T"
  },
  {
    "Compound": "COc1cccc(-c2c[nH]c3c(N/N=C/c4ccncc4)ncnc23)c1",
    "Group Label": "F"
  },
  {
    "Compound": "Cc1cc(NCCCN(C)C)c2ccc3c(ccc4c(NCCCN(C)C)cc(C)nc43)c2n1",
    "Group Label": "T"
  },
  {
    "Compound": "CN(C)CCN1C(=O)c2c(c3c4ccccc4n4c3c3c2c2ccccc2n3C2CC(O)C(O)C4(C)O2)C1=O (configuration not stated)",
    "Group Label": "F"
  },
  {
    "Compound": "C[C@@]12CCC(=O)c3coc(c31)C(=O)c1cc3c(cc12)C(=O)C=CC3=O",
    "Group Label": "F"
  }
]

[ask] // return assay outcome for "Cc1cc(F)ccc1S(=O)(=O)Nc1cc(-c2c(O)ccc3ccccc23)c(O)c2ccccc12"
[reply] F

###

# Tested on: HT29 colon
# Assay Text: NCI tumour cell line growth inhibition, 48 h
Quantity: TGI

[
  {
    "Molecule": "CC1(C)N/C(=C\\C=O)C(C)(C)N1O",
    "Test Target": "HT29 colon",
    "Measured Result": "> 100 µM"
  },
  {
    "Molecule": "CCN(CC)N1C(=O)[N+](CC)(CC)N=C1[O-]",
    "Test Target": "HT29 colon",
    "Measured Result": "> 100 µM"
  },
  {
    "Molecule": "COc1c(O)c2c3c(cc(C)cc3c1C(C)C)OC2",
    "Test Target": "HT29 colon",
    "Measured Result": "> 100 µM"
  }
]

[ask] Input "Cc1cc2c(C(C)C)c(O)c(O)cc2c(O)c1-c1c(C)cc2c(C(C)C)c(O)c(O)cc2c1O" , output reported TGI.
[reply] 39.6 µM

[ask] Answer with the recorded TGI of "CC1=NN(C(=O)c2ccccc2O)C(=O)/C1=C/c1ccc(O)cc1" only.
[reply] > 100 µM

[ask] Read the entry Cc1ccc(OCC2OC(n3cnc4c(Cl)nc(N)nc43)CC2Oc2ccc(C)cc2)cc1 (stereo unspecified) and write its reported TGI.
[reply] > 100 µM

[ask] Write down TGI measured for item CC(=O)NCCC1CN(C(=O)/C=C/I)c2ccccc21 (stereo unspecified)
[reply] 12.9 µM

[ask] Report measured TGI; entry is "Cc1c(Cl)cccc1C(=O)Nc1nc2c(s1)CN(C(=O)c1ccc(C(F)(F)F)cc1)CC2"
[reply] 9.2 µM

###

# Tested on: SK-MEL-2 melanoma
# Assay Text: NCI tumour cell line growth inhibition, 48 h
Some molecules, each annotated with its measured log10 of TGI.
Would you kindly interpret these values as log10 of TGI expressed in µM?

[ask] Please report the measured log10 of TGI for "CSC1=C(N)C(=O)c2[nH]cc(CO)c2C1=N" tested on SK-MEL-2 melanoma.
[reply] -0.30

[ask] Retrieve log10 of TGI on SK-MEL-2 melanoma; query O=C1CCCCCCCCCCC1CN1CCCC1 (stereo not given)
[reply] 2.00

[ask] Provide log10 of TGI, tested on SK-MEL-2 melanoma, for "CCNCCCn1c2c(c3ccc(Cl)cc3c1=O)C(=O)c1cc(OC)cnc1-2" .
[reply] 1.47

[ask] Identify measured log10 of TGI obtained with SK-MEL-2 melanoma for "O=C1C[C@@H](C(=O)OCc2ccccc2)NC(=O)C[C@@H](C(=O)OCc2ccccc2)NC(=O)C[C@@H](C(=O)OCc2ccccc2)N1" .
[reply] 1.82

[ask] Specify log10 of TGI for "NCCCN(CCCN(C(=O)Nc1ccccc1)c1ccccc1)C(=O)Nc1ccccc1" , system SK-MEL-2 melanoma.
[reply] 1.75
